Values from patent US9212182B2

System: UniProtKB Q15858
Sequence (Q15858 whole entry): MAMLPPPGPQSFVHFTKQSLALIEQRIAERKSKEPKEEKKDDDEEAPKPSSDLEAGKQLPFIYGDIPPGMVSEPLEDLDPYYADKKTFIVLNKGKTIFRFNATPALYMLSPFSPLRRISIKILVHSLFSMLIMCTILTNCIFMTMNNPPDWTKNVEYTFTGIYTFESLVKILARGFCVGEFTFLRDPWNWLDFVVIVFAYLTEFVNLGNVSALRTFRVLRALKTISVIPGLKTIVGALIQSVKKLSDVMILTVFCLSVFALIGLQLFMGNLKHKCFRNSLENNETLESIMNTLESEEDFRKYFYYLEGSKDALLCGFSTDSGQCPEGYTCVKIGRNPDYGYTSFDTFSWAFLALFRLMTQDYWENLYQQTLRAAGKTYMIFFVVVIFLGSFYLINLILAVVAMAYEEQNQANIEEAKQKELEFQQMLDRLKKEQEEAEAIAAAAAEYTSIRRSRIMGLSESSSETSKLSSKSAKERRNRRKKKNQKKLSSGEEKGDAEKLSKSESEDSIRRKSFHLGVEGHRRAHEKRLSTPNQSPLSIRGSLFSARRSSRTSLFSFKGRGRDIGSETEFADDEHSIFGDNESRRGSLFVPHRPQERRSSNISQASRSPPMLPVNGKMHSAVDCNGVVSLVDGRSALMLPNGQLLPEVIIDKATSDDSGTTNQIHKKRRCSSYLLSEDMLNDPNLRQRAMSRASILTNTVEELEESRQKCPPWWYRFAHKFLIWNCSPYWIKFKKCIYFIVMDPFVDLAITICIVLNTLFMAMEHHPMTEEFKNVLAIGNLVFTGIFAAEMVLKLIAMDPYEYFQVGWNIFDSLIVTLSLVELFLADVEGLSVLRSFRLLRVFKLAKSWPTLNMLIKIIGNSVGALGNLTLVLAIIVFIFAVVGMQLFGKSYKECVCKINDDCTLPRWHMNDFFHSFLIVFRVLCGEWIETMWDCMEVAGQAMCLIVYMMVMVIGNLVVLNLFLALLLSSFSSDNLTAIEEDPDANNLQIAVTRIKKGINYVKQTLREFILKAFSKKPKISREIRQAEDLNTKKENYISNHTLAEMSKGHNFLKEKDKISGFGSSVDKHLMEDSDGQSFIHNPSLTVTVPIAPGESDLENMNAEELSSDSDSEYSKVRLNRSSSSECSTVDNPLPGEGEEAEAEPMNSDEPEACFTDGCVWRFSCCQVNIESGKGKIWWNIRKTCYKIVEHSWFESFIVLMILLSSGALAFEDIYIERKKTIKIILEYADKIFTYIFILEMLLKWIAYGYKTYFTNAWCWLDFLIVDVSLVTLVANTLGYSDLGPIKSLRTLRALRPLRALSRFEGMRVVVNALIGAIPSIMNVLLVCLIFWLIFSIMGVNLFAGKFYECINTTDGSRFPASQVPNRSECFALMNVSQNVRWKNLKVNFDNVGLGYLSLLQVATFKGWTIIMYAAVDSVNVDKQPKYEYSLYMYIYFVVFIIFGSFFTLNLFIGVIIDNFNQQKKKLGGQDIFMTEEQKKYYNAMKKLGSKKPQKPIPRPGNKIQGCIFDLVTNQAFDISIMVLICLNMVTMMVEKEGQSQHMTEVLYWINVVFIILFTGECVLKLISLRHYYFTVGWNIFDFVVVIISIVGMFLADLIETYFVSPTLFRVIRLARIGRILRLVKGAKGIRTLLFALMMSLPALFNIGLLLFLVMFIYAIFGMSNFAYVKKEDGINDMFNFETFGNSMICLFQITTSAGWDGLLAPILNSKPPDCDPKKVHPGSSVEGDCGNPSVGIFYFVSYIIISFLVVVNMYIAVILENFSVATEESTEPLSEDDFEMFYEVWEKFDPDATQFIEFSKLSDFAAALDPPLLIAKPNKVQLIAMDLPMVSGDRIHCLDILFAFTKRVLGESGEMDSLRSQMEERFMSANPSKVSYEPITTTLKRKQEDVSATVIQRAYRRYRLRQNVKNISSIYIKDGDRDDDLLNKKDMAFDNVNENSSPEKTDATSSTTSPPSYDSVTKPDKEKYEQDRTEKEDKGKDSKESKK
Assay details: in-vitro Nav 1.7 PX (IC50)
Type: cell-based
Experimental parameters: in-vitro Nav 1.7 PX data
Endpoint: IC50 (nM)

Worked cases, IC50 given:
[
  {
    "Compound": "COc1cc(-c2cccc(C(F)(F)F)c2)c(F)cc1-n1c(=O)ccc2cc(S(=O)(=O)[N-][n+]3ccccc3)ccc21 [Example 817]",
    "IC50, nM": 4530
  },
  {
    "Compound": "COc1cc(-c2cccc(OC)c2C)c(C)cc1-n1c(=O)ccc2cc(S(=O)(=O)Nc3ncccn3)ccc21 [Example 968]",
    "IC50, nM": 57
  },
  {
    "Compound": "CCOc1cccc(-c2cc(OC)c(-n3c(=O)ccc4cc(S(=O)(=O)Nc5ncccn5)ccc43)cc2C)c1 [Example 963]",
    "IC50, nM": 27
  },
  {
    "Compound": "COc1cc(-c2cccc(C)c2)ccc1-n1c(=O)ccc2cc(S(=O)(=O)Nc3ccnc(C)n3)ccc21 [Example 1132]",
    "IC50, nM": 192
  },
  {
    "Compound": "COc1ccc(-c2ccccc2C(F)(F)F)cc1-n1c(=O)ccc2cc(S(=O)(=O)Nc3ccon3)ccc21 [Example 850]",
    "IC50, nM": 141
  }
]

(P) COc1cc(-c2ccc(F)c(F)c2)c(F)cc1-n1c(=O)ccc2cc(S(=O)(=O)Nc3ccnc(C)n3)ccc21 [Example 939]
(Q) COc1ccc(-c2ccc(C)c(Cl)c2)cc1-n1c(=O)ccc2cc(S(=O)(=O)Nc3ccon3)ccc21 [Example 885]
(R) COc1cc(-c2ccc3c(c2)OCC3)ccc1-n1c(=O)ccc2cc(S(=O)(=O)Nc3ccon3)ccc21 [Example 809]
(S) COc1cc(-c2ccnc(C)c2)c(F)cc1-n1c(=O)ccc2cc(S(=O)(=O)Nc3ccon3)ccc21 [Example 736]
(T) COc1ccc(-c2ccc(F)cc2F)cc1-n1c(=O)ccc2cc(S(=O)(=O)Nc3ccon3)ccc21 [Example 837]
Prompt: Rank the items in ascending order with respect to IC50. // list labels; follow requested order
Response: Q, P, R, T, S

(A) COc1cc(-c2ccc(F)c(C)c2)c(F)cc1-n1c(=O)ccc2cc(S(=O)(=O)Nc3ncco3)ccc21 [Example 943]
(B) COc1cc(-c2cc(C)cnc2OC)ccc1-n1c(=O)ccc2cc(S(=O)(=O)Nc3ccon3)ccc21 [Example 1022]
Prompt: Between A and B , whose recorded IC50 is greater? Choose, then provide that item's label.
Response: B
